Provenance of the data: paper PMC8671219

Test system: R848 induced TNF in human whole blood
Experiment: Human whole blood cytokine release assay
Format: cell-based
Test Settings: read-out: IC50 total, human whole blood R848 induced TNF
Quantity: IC50

| Compound | Recorded Result |
| --- | --- |
| CC[C@@H]1[C@H](F)C(=O)N[C@@H]1COc1nccc2cc(C(N)=O)c(OC)cc12 [PF‐06650833] | 8.8 nM |
